Reference for the values: PubChem BioAssay AID1963978

- System: 616215-338-R-J1-PDC spheroids with HUVEC/MSC, viability
- method description: Anticancer human tumor 616215-338-R-J1-PDC patient-derived colon adenocarcinoma cell line growth inhibition [PI3K]
- run conditions: second compound 1 µM; first compound 3.16 µM; stronger effect = lower value
readout kind: viability, T/C (%)
Write it as a number; the unit % goes unstated.

Example entries begin here.
{"compound": "Cn1ncc(Cl)c1-c1cc(C(=O)NC(CN)Cc2cccc(F)c2)sc1Cl (stereo unspecified) + Cc1nc(NC(=O)N2CCCC2C(N)=O)sc1-c1ccnc(C(C)(C)C(F)(F)F)c1", "readout kind": "viability, T/C", "reported value": 73.7}
{"compound": "CC1(C)CCC(Nc2ncc(C(F)(F)F)c(-c3c[nH]c4c(P(C)(C)=O)c(C#N)ccc34)n2)CN1 (stereo unspecified) + CC(Nc1ccc2c(c1)OCCn1cc(N3C(=O)OCC3C(F)F)nc1-2)C(N)=O", "readout kind": "viability, T/C", "reported value": 30.8}
{"compound": "CC(C)NCC(C(=O)N1CCN(c2ncnc3c2C(C)CC3O)CC1)c1ccc(Cl)cc1 (stereo unspecified) + COc1c(OCCCN2CCOCC2)ccc2c3n(c(=NC(=O)c4cnc(N)nc4)nc12)CCN3", "readout kind": "viability, T/C", "reported value": 20.7}
{"compound": "CC(C)NCC(C(=O)N1CCN(c2ncnc3c2C(C)CC3O)CC1)c1ccc(Cl)cc1 (stereo unspecified) + CC(Nc1ncnc2nc[nH]c12)c1cc2cccc(Cl)c2c(=O)n1-c1ccccc1", "readout kind": "viability, T/C", "reported value": 67.2}
{"compound": "C#Cc1c(F)ccc2cc(O)cc(-c3ncc4c(N5CC6CCC(C5)N6)nc(OCC56CCCN5CC(F)C6)nc4c3F)c12 (stereo unspecified) + COc1c(OCCCN2CCOCC2)ccc2c3n(c(=NC(=O)c4cnc(N)nc4)nc12)CCN3", "readout kind": "viability, T/C", "reported value": 6.21}

Please look at the following compound next.
INPUT: GET /values?readout=viability, T/C&item= CCCS(=O)(=O)Nc1ccc(F)c(C(=O)c2c[nH]c3ncc(-c4ccc(Cl)cc4)cc23)c1F + COc1c(OCCCN2CCOCC2)ccc2c3n(c(=NC(=O)c4cnc(N)nc4)nc12)CCN3
OUTPUT: 18.7

---

# key: entry, value: IC50
- Test system: 616215-338-R-J1-PDC spheroids with HUVEC/MSC, viability
- method description: Anticancer human tumor 616215-338-R-J1-PDC cell line growth inhibition [PI3K];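 note: spheroids exposed to agents for seven days before the viability read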
- run conditions: curve of first compound; second compound 0.00316 µM

Example entries begin here.
{"compound": "Cn1ncnc1[C@H]1c2n[nH]c(=O)c3cc(F)cc(c23)N[C@@H]1c1ccc(F)cc1 + CC(Nc1ccc2c(c1)OCCn1cc(N3C(=O)OCC3C(F)F)nc1-2)C(N)=O", "reported value": "> 0.1 µM"}
{"compound": "CC(=O)c1c(C)c2cnc(Nc3ccc(N4CCNCC4)cn3)nc2n(C2CCCC2)c1=O + CC(Nc1ccc2c(c1)OCCn1cc(N3C(=O)OCC3C(F)F)nc1-2)C(N)=O", "reported value": "> 0.1 µM"}

INPUT: GET /values?readout=IC50&item= CC1(C)CCC(CN2CCN(c3ccc(C(=O)NS(=O)(=O)c4ccc(NCC5CCOCC5)c([N+](=O)[O-])c4)c(Oc4cnc5[nH]ccc5c4)c3)CC2)=C(c2ccc(Cl)cc2)C1 + CC(Nc1ccc2c(c1)OCCn1cc(N3C(=O)OCC3C(F)F)nc1-2)C(N)=O
OUTPUT: 4.6 µM

INPUT: GET /values?readout=IC50&item= CC1(C)CCC(Nc2ncc(C(F)(F)F)c(-c3c[nH]c4c(P(C)(C)=O)c(C#N)ccc34)n2)CN1 (stereo unspecified) + CC(Nc1ccc2c(c1)OCCn1cc(N3C(=O)OCC3C(F)F)nc1-2)C(N)=O
OUTPUT: 3.62 µM

INPUT: GET /values?readout=IC50&item= CCCS(=O)(=O)Nc1ccc(F)c(C(=O)c2c[nH]c3ncc(-c4ccc(Cl)cc4)cc23)c1F + COc1c(OCCCN2CCOCC2)ccc2c3n(c(=NC(=O)c4cnc(N)nc4)nc12)CCN3
OUTPUT: 4.83 µM

INPUT: GET /values?readout=IC50&item= C[C@@H](NC(=O)c1ncnc(N)c1Cl)c1ncc(C(=O)Nc2cc(C(F)(F)F)c(Cl)cn2)s1 + CC(Nc1ccc2c(c1)OCCn1cc(N3C(=O)OCC3C(F)F)nc1-2)C(N)=O
OUTPUT: > 10 µM

INPUT: GET /values?readout=IC50&item= CC(=O)c1c(C)c2cnc(Nc3ccc(N4CCNCC4)cn3)nc2n(C2CCCC2)c1=O + COc1c(OCCCN2CCOCC2)ccc2c3n(c(=NC(=O)c4cnc(N)nc4)nc12)CCN3
OUTPUT: > 0.1 µM

INPUT: GET /values?readout=IC50&item= CC(C)n1nc(-c2ccc3oc(N)nc3c2)c2c(N)ncnc21 + COc1c(OCCCN2CCOCC2)ccc2c3n(c(=NC(=O)c4cnc(N)nc4)nc12)CCN3
OUTPUT: > 0.1 µM

INPUT: GET /values?readout=IC50&item= C=CC(=O)N1CCN(c2nc(=O)n(-c3c(C)ccnc3C(C)C)c3nc(-c4c(O)cccc4F)c(F)cc23)C(C)C1 (stereo unspecified) + CC(Nc1ccc2c(c1)OCCn1cc(N3C(=O)OCC3C(F)F)nc1-2)C(N)=O
OUTPUT: > 10 µM

INPUT: GET /values?readout=IC50&item= CCN1CCN(Cc2ccc(Nc3ncc(F)c(-c4cc(F)c5nc(C)n(C(C)C)c5c4)n3)nc2)CC1 + COc1c(OCCCN2CCOCC2)ccc2c3n(c(=NC(=O)c4cnc(N)nc4)nc12)CCN3
OUTPUT: > 1 µM

INPUT: GET /values?readout=IC50&item= Cn1nccc1Nc1nccc(-c2ccn(C(CO)c3ccc(Cl)c(F)c3)c(=O)c2)n1 (stereo unspecified) + CC(Nc1ccc2c(c1)OCCn1cc(N3C(=O)OCC3C(F)F)nc1-2)C(N)=O
OUTPUT: 4.61 µM

---

- Tested on: 616215-338-R-J1-PDC spheroids with HUVEC/MSC, viability
- method description: Anticancer human tumor 616215-338-R-J1-PDC cell line growth inhibition [PI3K];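 note: spheroids exposed to agents for seven days before the viability read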
- run conditions: second compound 1 µM; first compound 3.16 µM; stronger effect = lower value
Could you mark each record met if its viability, T/C falls strictly under 90%, and not met if it equals or exceeds it?

Consider the following illustrative entries.
{"compound": "CC(Cn1ccc(-c2ccc(C#N)c(Cl)c2)n1)NC(=O)c1cc(C(C)O)[nH]n1 (stereo not given) + COc1c(OCCCN2CCOCC2)ccc2c3n(c(=NC(=O)c4cnc(N)nc4)nc12)CCN3", "label class": "met"}
{"compound": "C#Cc1c(F)ccc2cc(O)cc(-c3ncc4c(N5CC6CCC(C5)N6)nc(OCC56CCCN5CC(F)C6)nc4c3F)c12 (stereo not given) + CC(Nc1ccc2c(c1)OCCn1cc(N3C(=O)OCC3C(F)F)nc1-2)C(N)=O", "label class": "met"}
{"compound": "CC1(C)CCC(CN2CCN(c3ccc(C(=O)NS(=O)(=O)c4ccc(NCC5CCOCC5)c([N+](=O)[O-])c4)c(Oc4cnc5[nH]ccc5c4)c3)CC2)=C(c2ccc(Cl)cc2)C1 + CC(Nc1ccc2c(c1)OCCn1cc(N3C(=O)OCC3C(F)F)nc1-2)C(N)=O", "label class": "met"}
{"compound": "C=CC(=O)N1CCN(c2nc(=O)n(-c3c(C)ccnc3C(C)C)c3nc(-c4c(O)cccc4F)c(F)cc23)C(C)C1 (stereo not given) + Cc1nc(NC(=O)N2CCCC2C(N)=O)sc1-c1ccnc(C(C)(C)C(F)(F)F)c1", "label class": "not met"}

INPUT: Below 90% on viability, T/C? Entry CCCS(=O)(=O)Nc1ccc(F)c(C(=O)c2c[nH]c3ncc(-c4ccc(Cl)cc4)cc23)c1F + CC(Nc1ncnc2nc[nH]c12)c1cc2cccc(Cl)c2c(=O)n1-c1ccccc1
OUTPUT: met

INPUT: Below 90% on viability, T/C? Entry C#Cc1c(F)ccc2cc(O)cc(-c3ncc4c(N5CC6CCC(C5)N6)nc(OCC56CCCN5CC(F)C6)nc4c3F)c12 (stereo not given) + Cc1nc(NC(=O)N2CCCC2C(N)=O)sc1-c1ccnc(C(C)(C)C(F)(F)F)c1
OUTPUT: met

INPUT: Below 90% on viability, T/C? Entry C[C@@H](NC(=O)c1ncnc(N)c1Cl)c1ncc(C(=O)Nc2cc(C(F)(F)F)c(Cl)cn2)s1 + COc1c(OCCCN2CCOCC2)ccc2c3n(c(=NC(=O)c4cnc(N)nc4)nc12)CCN3
OUTPUT: met

---

- System: 616215-338-R-J1-PDC spheroids with HUVEC/MSC, viability
- method description: Anticancer human tumor 616215-338-R-J1-PDC cell line growth inhibition [PI3K];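 note: spheroids exposed to agents for seven days before the viability read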
- run conditions: second compound 0.316 µM; first compound 0.1 µM; stronger effect = lower value
Could you mark each record Condition met if its viability, T/C falls strictly under 90%, and Condition not met if it equals or exceeds it?

{"compound": "C[C@@H](NC(=O)c1ncnc(N)c1Cl)c1ncc(C(=O)Nc2cc(C(F)(F)F)c(Cl)cn2)s1 + COc1c(OCCCN2CCOCC2)ccc2c3n(c(=NC(=O)c4cnc(N)nc4)nc12)CCN3", "label class": "Condition met"}
{"compound": "CC1(C)CCC(Nc2ncc(C(F)(F)F)c(-c3c[nH]c4c(P(C)(C)=O)c(C#N)ccc34)n2)CN1 (stereo not given) + CC(Nc1ncnc2nc[nH]c12)c1cc2cccc(Cl)c2c(=O)n1-c1ccccc1", "label class": "Condition met"}
{"compound": "C[C@@H](NC(=O)c1ncnc(N)c1Cl)c1ncc(C(=O)Nc2cc(C(F)(F)F)c(Cl)cn2)s1 + CC(Nc1ncnc2nc[nH]c12)c1cc2cccc(Cl)c2c(=O)n1-c1ccccc1", "label class": "Condition not met"}

INPUT: Below 90% on viability, T/C? Entry Cn1nccc1Nc1nccc(-c2ccn(C(CO)c3ccc(Cl)c(F)c3)c(=O)c2)n1 (stereo not given) + Cc1nc(NC(=O)N2CCCC2C(N)=O)sc1-c1ccnc(C(C)(C)C(F)(F)F)c1
OUTPUT: Condition met

INPUT: Below 90% on viability, T/C? Entry CC(C)n1nc(-c2ccc3oc(N)nc3c2)c2c(N)ncnc21 + COc1c(OCCCN2CCOCC2)ccc2c3n(c(=NC(=O)c4cnc(N)nc4)nc12)CCN3
OUTPUT: Condition met
